Data origin: patent US10626107B2

experiment: Solubility study at different pHs; type: physicochemical; conditions: simulated gastric fluid, thermodynamic from solid; 0.01N HCl (pH 1.99), 37° C., 24 hrs
observation_type: solubility at 24 h

Looking up CC(C)c1c2cc(-c3nc(Nc4ccc(N5CCNCC5)cn4)ncc3F)ccc2nn1C.O=C(O)/C=C\C(=O)O [A crystal form of compound WX_1] , I see its solubility at 24 h listed as > 2500 µg/mL

###

assay: Solubility study at different pHs; type: physicochemical; details: aqueous buffer, thermodynamic from solid; pH 3.8 buffer (pH 3.80), 37° C., 4 hrs
observation_type: solubility at 4 h

Looking up CC(C)c1c2cc(-c3nc(Nc4ccc(N5CCNCC5)cn4)ncc3F)ccc2nn1C.O=C(O)/C=C\C(=O)O [A crystal form of compound WX_1] , I see its solubility at 4 h listed as > 2500 µg/mL

###

test: Solubility study at different pHs; format: physicochemical; details: aqueous buffer, thermodynamic from solid; pH 3.8 buffer (pH 3.80), 37° C., 24 hrs
observation_type: solubility at 24 h

Looking up CC(C)c1c2cc(-c3nc(Nc4ccc(N5CCNCC5)cn4)ncc3F)ccc2nn1C.O=C(O)/C=C\C(=O)O [A crystal form of compound WX_1] , I see its solubility at 24 h listed as > 2500 µg/mL

###

test: Solubility tests in different vehicles (HPLC); assay type: physicochemical; conditions: 26 °C, thermodynamic from solid, FeSSIF, room temperature 25 to 27° C., read-out: Solubility FeSSIF
observation_type: solubility at 24 h (µg/mL)
Field: numeric (µg/mL). Do not append units.

Looking up CC(C)c1c2cc(-c3nc(Nc4ccc(N5CCNCC5)cn4)ncc3F)ccc2nn1C.O=C(O)/C=C\C(=O)O [A crystal form of compound WX_1] , I see its solubility at 24 h listed as 1600

Looking up CC(C)c1c2cc(-c3nc(Nc4ccc(N5CCNCC5)cn4)ncc3F)ccc2nn1C [compound of formula (I)] , I see its solubility at 24 h listed as 1600
